Data provenance is ChEMBL document CHEMBL3297705.

method_notes: Cmax in NCR nude mouse at 30 mg/kg, po
Assay type: ADME, organism-based
Parameters: dose 30 mg/kg, route oral
experimental_context: in vivo
readout_kind: Cmax (µM)
Write down the numeric answer in µM and omit the unit.

Lookup: Consider the molecule O=C(N[C@H](CO)c1ccc(Cl)c(F)c1)N1CCc2cnc(NC3CCOCC3)nc2C1 and give its measured Cmax.
Found: 3.12

###

target: Mitogen-activated protein kinase 1 (Homo sapiens)
Sequence (P28482 whole entry): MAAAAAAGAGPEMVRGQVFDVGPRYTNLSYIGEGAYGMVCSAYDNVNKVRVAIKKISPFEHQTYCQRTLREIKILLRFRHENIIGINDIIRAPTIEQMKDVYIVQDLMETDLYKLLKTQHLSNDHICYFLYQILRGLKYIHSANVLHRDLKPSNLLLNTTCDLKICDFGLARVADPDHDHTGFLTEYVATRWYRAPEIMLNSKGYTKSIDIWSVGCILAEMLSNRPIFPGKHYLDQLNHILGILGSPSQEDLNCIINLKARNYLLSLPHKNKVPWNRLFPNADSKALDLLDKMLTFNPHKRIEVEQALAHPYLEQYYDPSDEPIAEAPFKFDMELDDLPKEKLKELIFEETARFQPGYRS
Binary call on IC50 with cut-off 200 nM: strictly below means 1, and equality or higher means 0.

Lookup: Given CC(C)Nc1ncc2c(n1)CN(C(=O)NCc1ccccc1)CC2 , is recorded IC50 strictly lower than 200 nM?
Found: 0

Lookup: API: query returns whether the compound falls strictly under 200 nM in IC50. Query: CC(C)CNc1ncc2c(n1)CN(C(=O)N[C@H](CO)c1ccc(F)c(Cl)c1)CC2
Found: 0

Lookup: Just wondering, is IC50 of C[C@@H](NC(=O)N1CCc2cnc(Nc3ccnn3C)nc2C1)c1ccc(Cl)c(Cl)c1 below 200 nM?
Found: 1

Lookup: Confirm or reject: IC50 of CC(C)Nc1ncc2c(n1)CN(C(=O)N[C@H](CO)c1ccc(F)c(Cl)c1)CC2 lies strictly below 200 nM
Found: 1

Lookup: Here's an entry: CC(C)Nc1ncc2c(n1)CN(C(=O)NCc1cccc(Cl)c1)CC2 . Is its IC50 below 200 nM?
Found: 0

Lookup: Does the reported IC50 of the following compound sit strictly below 200 nM? CC(C)Nc1ncc2c(n1)CN(C(=O)NCc1cccc(F)c1)CC2
Found: 0

Lookup: Lab note: confirm whether the reported IC50 for this compound is below 200 nM, equality not counting. compound: CC[C@@H](NC(=O)N1CCc2cnc(NC3CCOCC3)nc2C1)c1ccc(C#N)c(Cl)c1
Found: 1
